List of pKd values.
tested system: T1, purified ALK protein (BLitz, Table 20) (Homo sapiens (Human), UniProt Q9UM73 19-1038, limits assumed)
T1 construct: also called purified ALK proteins
T1 sequence (Q9UM73 19-1038 limits assumed): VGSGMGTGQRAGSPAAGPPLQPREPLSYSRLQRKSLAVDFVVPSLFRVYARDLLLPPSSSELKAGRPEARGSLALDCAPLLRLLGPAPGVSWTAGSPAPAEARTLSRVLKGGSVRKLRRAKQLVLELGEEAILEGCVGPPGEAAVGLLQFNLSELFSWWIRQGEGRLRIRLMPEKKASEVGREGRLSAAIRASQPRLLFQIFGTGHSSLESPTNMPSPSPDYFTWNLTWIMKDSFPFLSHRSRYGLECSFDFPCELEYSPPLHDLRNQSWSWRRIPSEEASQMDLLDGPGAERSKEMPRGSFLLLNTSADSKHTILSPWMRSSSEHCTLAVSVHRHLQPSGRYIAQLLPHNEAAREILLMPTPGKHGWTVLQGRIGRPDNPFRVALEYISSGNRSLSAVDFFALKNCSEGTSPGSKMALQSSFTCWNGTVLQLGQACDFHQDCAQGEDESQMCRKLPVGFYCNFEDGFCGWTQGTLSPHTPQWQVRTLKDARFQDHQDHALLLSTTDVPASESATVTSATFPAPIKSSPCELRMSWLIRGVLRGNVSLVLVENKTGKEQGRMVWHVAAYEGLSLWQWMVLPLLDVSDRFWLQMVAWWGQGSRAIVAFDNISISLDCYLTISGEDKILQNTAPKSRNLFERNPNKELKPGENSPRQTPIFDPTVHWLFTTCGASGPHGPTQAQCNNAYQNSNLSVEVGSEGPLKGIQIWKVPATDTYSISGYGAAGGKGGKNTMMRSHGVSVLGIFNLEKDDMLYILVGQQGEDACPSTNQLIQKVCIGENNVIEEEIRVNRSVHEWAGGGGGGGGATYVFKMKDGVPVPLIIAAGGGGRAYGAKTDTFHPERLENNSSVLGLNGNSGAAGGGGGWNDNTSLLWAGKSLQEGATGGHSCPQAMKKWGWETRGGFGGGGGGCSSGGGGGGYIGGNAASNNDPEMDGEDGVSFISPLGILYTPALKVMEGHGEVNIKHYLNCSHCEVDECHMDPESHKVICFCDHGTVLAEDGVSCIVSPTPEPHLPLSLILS
measurement protocol: BLI (BLitz), mAb on Protein A tip, purified ALK in solution
Scale note: pKd = -log10(concentration in M).

Ab420 (antibody, V domains shown, humanized) VH: EVQLVQSGAEVKKPGSSVKLSCKASGYTFTSYWMHWVRQAPGQGLEWIGYIKPSSGYTKYNQKFKDKATLTADKSTSTAYMELSSLRSEDTAVYYCARDYYGSSSWFAYWGQGTLVTVSS VL: EIVMTQSQATLSTSPGERATLSCKASQNVGTNVAWYQQKPGQAPRALIYSASYRYSGVPARFSGSGSGTDFTLTISSVEPEDFAVYYCQQYNSYPYMYTFGQGTKLEIK :: 6.63
Ab370 (antibody, V domains shown, humanized) VH: EVQLVQSGAEVKKPGASVKLSCKASGYTFTSYWMHWVRQAPGQGLEWIGYIKPSSGYTKYAQKLQGRVTLTADKSTSTAYMELRSLRSDDTAVYYCARDYYGSSSWFAYWGQGTLVTVSS VL: DIVMTQSQAFMSVTVGEKVTITCKASQNVGTNVAWYQQKPDQAPKALIYSASYRYSGVPSRFSGSGSGTDFTLTISSLEAEDAATYYCQQYNSYPYMYTFGQGTKLEIK :: 5.60

--- query ---
Sure, the documented pKd for Ab421 (antibody, V domains shown, humanized) VH: EVQLVQSGAEVKKPGSSVKVSCKASGYTFSSYWMHWVRQAPGQGLEWIGYIKPSSGYTKYNQKFKDKATLTADKSTSTAYMELSSLRSEDTAVYYCARDYYGSSSWFAYWGQGTLVTVSS VL: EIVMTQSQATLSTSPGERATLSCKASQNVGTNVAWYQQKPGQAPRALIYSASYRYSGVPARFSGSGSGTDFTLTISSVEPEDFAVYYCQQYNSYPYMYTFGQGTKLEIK is 6.55
